- system.tested: Myelin-associated glycoprotein (Mus musculus)
- assay.name: Binding affinity to mouse MAGd1-3Fc expressed in CHO-Lec 3.2.8.1 cells under NaCl condition by CM5 chip SPR analysis
endpoint.name: Kd (µM)
State just the number; it will be interpreted in µM.

Ask: Give its Kd value. Item: `CC(=O)N[C@H]1[C@H]([C@@H](O)[C@H](O)CNC(=O)c2ccccc2)O[C@@](OCc2ccccc2)(C(=O)O)C[C@@H]1O`
Result: 14.9

###

- system.tested: Myelin-associated glycoprotein (Mus musculus) (UniProt P20917)
- Sequence (whole entry): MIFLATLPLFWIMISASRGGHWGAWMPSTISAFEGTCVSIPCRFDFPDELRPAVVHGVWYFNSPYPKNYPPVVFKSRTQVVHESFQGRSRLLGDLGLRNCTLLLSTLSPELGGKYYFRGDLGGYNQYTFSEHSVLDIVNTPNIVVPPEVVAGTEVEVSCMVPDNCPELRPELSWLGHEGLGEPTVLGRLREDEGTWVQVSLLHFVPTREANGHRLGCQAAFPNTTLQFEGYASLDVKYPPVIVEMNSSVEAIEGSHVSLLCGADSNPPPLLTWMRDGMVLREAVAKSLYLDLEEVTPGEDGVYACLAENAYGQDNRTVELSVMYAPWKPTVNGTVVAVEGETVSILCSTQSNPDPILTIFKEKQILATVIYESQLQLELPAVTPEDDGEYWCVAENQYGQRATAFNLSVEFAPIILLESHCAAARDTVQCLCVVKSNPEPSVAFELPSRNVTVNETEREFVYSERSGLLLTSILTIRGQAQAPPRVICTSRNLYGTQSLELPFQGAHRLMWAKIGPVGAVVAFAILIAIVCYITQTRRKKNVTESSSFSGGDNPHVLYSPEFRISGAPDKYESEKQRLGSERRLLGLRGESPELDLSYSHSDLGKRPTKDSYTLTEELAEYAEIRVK
- assay.name: Inhibition of mouse MAGd1-3Fc expressed in CHO-Lec 3.2.8.1 cells by hepten inhibition assay relative to sodium-(2R,4S,5R,6R)-5-acetamido-2-(benzyloxy)-6-((1S,2R)-3-(4-chlorobenzamido)-1,2-dihydroxypropyl)-4-hydroxytetrahydro-2H-pyran-2-carboxylate
- Assay type: cell-based
endpoint.name: Ratio

Consider the following illustrative entries.
>  <smiles.record>
CC(=O)N[C@H]1[C@H]([C@@H](O)[C@H](O)CNC(=O)c2ccc(Cl)cc2)O[C@@](OCc2ccccc2)(C(=O)O)C[C@@H]1O

>  <system.tested>
Myelin-associated glycoprotein (Mus musculus) (UniProt P20917)

>  <assay.value>
1

$$$$
>  <smiles.record>
CC(=O)N[C@H]1[C@H]([C@@H](O)[C@H](O)CNC(=O)c2ccc(Cl)c(Cl)c2)O[C@@](OCc2ccccc2)(C(=O)O)C[C@@H]1O

>  <system.tested>
Myelin-associated glycoprotein (Mus musculus) (UniProt P20917)

>  <assay.value>
1.61

$$$$

Ask: Which measured Ratio value corresponds to `CC(=O)N[C@H]1[C@H]([C@@H](O)[C@H](O)CNC(=O)c2ccc(Cl)cc2)O[C@@](OCc2cccc(Cl)c2Cl)(C(=O)O)C[C@@H]1O` ?
Result: 0.5
